Hey, just so you know, these numbers are from patent US20240247080A1.

EC50, CreLuc assay, 0.5% hP reference
- system_name: human GLP-1 receptor (human, UniProt P43220 24-463)
- test: cell-based or functional assay
Starred links: 1 amine or outer side, 2 acyl side, 3 side chain; linkers in the order of their positions; H or OH if unused. Non-standard residues stand in square brackets, D forms with d. Groups on a side chain read outwards from the residue. No end group written: not given here. *: point of attachment. C18 diacid = O=C(O)CCCCCCCCCCCCCCCCC(=O)*; γGlu = O=C(O)[C@H](CCC(=O)[*:2])N[*:1]; AEEA = NCCOCCOCC(=O)O; Aib = CC(C)(N)C(=O)O
The reply should contain only the number, in nM.

INSERT INTO results (binder, measured) VALUES
  ('YXEGTFTSDYSIXLEKQAQXAFVQWLIKGGPESGASLRHYYNWLTRQRY (Aib at 2, 13, 20; K28 side chain: C20DA-gGlu-gGlu-gGlu-gGlu-gGlu; C-terminal NH2) [Compound 29]', 0.13),
  ('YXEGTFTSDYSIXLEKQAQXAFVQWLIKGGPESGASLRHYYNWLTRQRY (Aib at 2, 13, 20; K28 side chain: C20DA-gGlu-gGlu-gGlu-gGlu-gGlu-gGlu-eLys; C-terminal NH2) [Compound 37]', 0.11);

Now for another entry.
-- ask Quick one: EC50, CreLuc assay, 0.5% hP for Y[Aib]EGTFTSDYSI[Aib]LEKQAQ[Aib]EFVEWLIK([AEEA-AEEA-γGlu-γGlu-γGlu-γGlu-C18 diacid])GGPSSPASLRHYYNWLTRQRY-NH2 (also: TFA salt) [Compound 56] ?
-- reply 0.25
